PBM E-score values by entry
tested_target: Abf1 (UniProt P14164)
Sequence: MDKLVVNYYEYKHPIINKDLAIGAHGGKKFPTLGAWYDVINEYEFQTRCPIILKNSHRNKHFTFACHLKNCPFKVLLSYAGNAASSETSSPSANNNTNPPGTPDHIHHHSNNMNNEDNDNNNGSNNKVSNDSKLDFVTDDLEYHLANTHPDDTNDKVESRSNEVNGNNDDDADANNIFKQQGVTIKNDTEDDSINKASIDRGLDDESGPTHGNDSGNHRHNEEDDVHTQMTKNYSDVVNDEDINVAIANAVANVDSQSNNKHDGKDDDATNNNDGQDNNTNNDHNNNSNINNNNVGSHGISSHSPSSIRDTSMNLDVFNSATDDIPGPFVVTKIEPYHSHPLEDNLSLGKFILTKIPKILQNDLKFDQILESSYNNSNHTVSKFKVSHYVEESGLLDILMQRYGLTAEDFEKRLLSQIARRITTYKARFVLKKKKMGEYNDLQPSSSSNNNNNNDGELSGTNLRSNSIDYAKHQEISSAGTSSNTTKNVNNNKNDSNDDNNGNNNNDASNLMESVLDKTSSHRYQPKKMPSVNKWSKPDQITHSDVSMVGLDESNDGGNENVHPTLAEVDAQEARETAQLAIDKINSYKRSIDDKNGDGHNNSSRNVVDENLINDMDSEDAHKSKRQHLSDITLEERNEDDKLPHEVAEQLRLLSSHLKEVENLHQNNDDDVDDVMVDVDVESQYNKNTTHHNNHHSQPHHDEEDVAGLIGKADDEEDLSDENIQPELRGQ
method_description: PBM E-score (8-mer binding enrichment) (E-score (-0.5 to 0.5)); higher = stronger / more preferred TF binding
settings: protein concentration: 200 nM; construct: GST-full length
Over roughly 33,000 sequences, “E-score (-0.5 to 0.5)” has its median near -0.015; the highest 2% begin near 0.3. Shown is part of a subset that was picked to be rich in the highest values.
Could you keep your reply to the number by itself?

// worked examples, PBM E-score included
ACCTGGCC ... -0.0752
ACATACCT ... -0.0525
AGAGAAGA ... 0.0299
AAGATGAC ... 0.313
AAGATGAT ... 0.304

Looking up GGTATAAC , I found its PBM E-score recorded as 0.0343

// recorded PBM E-score for CGGCATAG : 0.0597

Measured PBM E-score of CCCTTAGG : -0.0737

The recorded PBM E-score for CGTGACCA is 0.0961

Sure, the documented PBM E-score for CATCGTCA is 0.297

Record GGTCACTA . Reported PBM E-score: 0.281

Measured PBM E-score, GGAGGAAA : -0.252

====

tested_target: Abf1 (UniProt P14164)
Sequence: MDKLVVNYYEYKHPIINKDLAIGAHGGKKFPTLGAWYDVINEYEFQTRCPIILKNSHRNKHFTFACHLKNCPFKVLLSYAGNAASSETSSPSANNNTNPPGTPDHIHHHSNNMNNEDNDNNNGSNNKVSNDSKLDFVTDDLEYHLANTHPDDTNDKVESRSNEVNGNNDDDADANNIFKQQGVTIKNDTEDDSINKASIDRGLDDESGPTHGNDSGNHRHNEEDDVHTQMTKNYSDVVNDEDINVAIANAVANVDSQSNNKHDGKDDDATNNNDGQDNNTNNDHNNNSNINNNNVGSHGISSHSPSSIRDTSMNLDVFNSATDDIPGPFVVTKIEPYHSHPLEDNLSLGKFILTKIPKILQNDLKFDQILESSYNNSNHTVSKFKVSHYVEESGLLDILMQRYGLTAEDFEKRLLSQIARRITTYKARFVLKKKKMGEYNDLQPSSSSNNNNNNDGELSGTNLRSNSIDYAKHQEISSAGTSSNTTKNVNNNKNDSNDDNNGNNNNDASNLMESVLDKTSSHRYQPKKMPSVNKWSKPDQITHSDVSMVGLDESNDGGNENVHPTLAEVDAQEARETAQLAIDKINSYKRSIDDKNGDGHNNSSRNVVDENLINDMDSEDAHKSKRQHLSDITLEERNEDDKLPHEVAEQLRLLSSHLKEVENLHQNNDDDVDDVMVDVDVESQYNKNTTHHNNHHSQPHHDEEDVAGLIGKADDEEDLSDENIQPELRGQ
method_description: PBM E-score (8-mer binding enrichment) (E-score (-0.5 to 0.5)); higher = stronger / more preferred TF binding
settings: protein concentration: 200 nM; construct: GST-full length
Whole data set: some 33,000 sequences, median “E-score (-0.5 to 0.5)” near -0.015, cut for the highest 2% near 0.3. This excerpt belongs to a sample that is enriched for the highest values.
Everything with PBM E-score lower than -0.008 is not met; everything else, including exactly -0.008, is met.

Query string: Exam item: decide whether the reported PBM E-score for GTAATAAC is at least -0.008.
Result string: met

Query string: Determine whether measured PBM E-score meets or exceeds -0.008 for AGCAGTAC
Result string: not met

Query string: Given CGATAATA , state whether its PBM E-score is at least -0.008.
Result string: met

Query string: Could you verify whether the entry CTATAATA shows PBM E-score of no less than -0.008?
Result string: not met

Query string: # check: PBM E-score of CCGGATGA is greater than or equal to -0.008
Result string: not met

Query string: Could you verify whether the entry ATAATAAA shows PBM E-score of no less than -0.008?
Result string: met

Query string: Is the recorded value of PBM E-score equal to or greater than -0.008 for this sequence? CGGCCCAC
Result string: not met

Query string: Check if PBM E-score >= -0.008 (inclusive). Item: CGGGGAGC
Result string: met
